system: Plasmodium falciparum, chloroquine-sensitive strain RFMEF3; assay: activity against P. falciparum in vitro, strain RFMEF3; format: cell-based; details: chloroquine-sensitive strain RFMEF3, 48 h-72 h, read-out: IC50 (50% growth inhibition)
Quick rule for you: IC50 under 8 ng/mL gets TRUE, anything else gets FALSE.

Prompt: Field: below-cutoff. Rule: recorded IC50 strictly less than 8 ng/mL. Subject: `Clc1ccc2c(NC3CCN(Cc4ccccc4)CC3)ccnc2c1`
Response: TRUE

Prompt: Please check: IC50 for `C=CCN(C)CCNc1ccnc2cc(Cl)ccc12` , strictly under 8 ng/mL or not?
Response: FALSE

Prompt: Problem: For the compound CC(CN(C)C)Nc1ccnc2cc(Cl)ccc12 (racemic) , is IC50 under 8 ng/mL?
Response: TRUE

Prompt: Below 8 ng/mL on IC50? Entry CC(CN1CCCCC1)Nc1ccnc2cc(Cl)ccc12 (racemic)
Response: TRUE

Prompt: Report whether reported IC50 is lower than 8 ng/mL (strictly) for `Clc1ccc2c(NCCN3CCCCC3)ccnc2c1`
Response: FALSE

Prompt: Dear colleague, could you confirm whether IC50 of CC1CC(C)(C)C(CNc2ccnc3cc(Cl)ccc23)C1N (stereo not drawn) falls below 8 ng/mL? Thanks.
Response: TRUE

Prompt: Here's an entry: CCN(CC)[C@@H]1CCC[C@H]1Nc1ccnc2cc(Cl)ccc12 (racemic) . Is its IC50 below 8 ng/mL?
Response: TRUE

Prompt: I'd appreciate it if you could check whether CN1CCC(Nc2ccnc3cc(Cl)ccc23)C1 (racemic) [Example 33a] has IC50 smaller than 8 ng/mL.
Response: TRUE

Prompt: Could you please tell me whether IC50 recorded for CCN(CC)CC(C)Nc1ccnc2cc(Cl)ccc12 (racemic) is less than 8 ng/mL?
Response: TRUE

Prompt: hey, is IC50 for Clc1ccc2c(N[C@@H]3CCC[C@H]3N3CCCC3)ccnc2c1 (relative stereo) [Example 11a] lower than 8 ng/mL or not?
Response: TRUE

Prompt: # strict comparison: is reported IC50 < 8 ng/mL? input = Clc1ccc2c(NCCN3CCC4CCCCC43)ccnc2c1 (stereo not drawn)
Response: TRUE

Prompt: Is IC50 strictly under 8 ng/mL for the entry `CCN(CC)CCNc1ccnc2cc(C(F)(F)F)ccc12` ?
Response: FALSE

Prompt: IC50 under 8 ng/mL? Item: CC(CN1CCCC1)Nc1ccnc2cc(Cl)ccc12 (racemic)
Response: TRUE

Prompt: Does this compound meet the criterion IC50 < 8 ng/mL? CC1CCCCN1CCNc1ccnc2cc(Cl)ccc12 (racemic)
Response: FALSE

Prompt: I'd appreciate it if you could check whether CN1CCCC(Nc2ccnc3cc(Cl)ccc23)C1 (racemic) [Example 19a] has IC50 smaller than 8 ng/mL.
Response: TRUE

Prompt: Below 8 ng/mL on IC50? Entry CCC1CCCCN1CCNc1ccnc2cc(Cl)ccc12 (racemic)
Response: TRUE

Prompt: Please indicate whether the reported IC50 of `C[C@@H]1CCC[C@H](C)N1CCNc1ccnc2cc(Cl)ccc12` is strictly below 8 ng/mL.
Response: FALSE

Prompt: Hello, I'm reviewing records and need to know if IC50 of CC1CC(C)CN(CCNc2ccnc3cc(Cl)ccc23)C1 (stereo not drawn) is below 8 ng/mL. Could you check?
Response: TRUE

Prompt: For this compound, is IC50 lower than 8 ng/mL? `CC(C)(CN1CCCCC1)Nc1ccnc2cc(Cl)ccc12`
Response: TRUE

Prompt: Below 8 ng/mL on IC50? Entry `CN(C)CCNc1ccnc2cc(C(F)(F)F)ccc12`
Response: FALSE

Prompt: # check: IC50 < 8 ng/mL for CCN(CC)[C@@H]1CCCC[C@H]1Nc1ccnc2cc(Cl)ccc12 (racemic)
Response: FALSE

Prompt: Please determine if `CC(C)(CN1CCCC1)Nc1ccnc2cc(Cl)ccc12` is below 8 ng/mL in terms of IC50.
Response: FALSE

Prompt: Please indicate whether the reported IC50 of CC1CCCN(CCNc2ccnc3cc(Cl)ccc23)C1 (racemic) is strictly below 8 ng/mL.
Response: TRUE

Prompt: Does this compound meet the criterion IC50 < 8 ng/mL? Clc1ccc2c(N[C@@H]3CCCC[C@H]3N3CCCC3)ccnc2c1 (racemic)
Response: TRUE

Prompt: I wonder whether `CC1CCN(CCNc2ccnc3cc(Cl)ccc23)CC1` has IC50 below 8 ng/mL. Can you tell?
Response: TRUE

###

Give IC50 for every item shown.
tested on: Plasmodium falciparum, chloroquine-sensitive strain NF54; experiment: activity against P. falciparum in vitro, strain NF54; format: cell-based; settings: Plasmodium falciparum; chloroquine-sensitive strain NF54; 48 h-72 h; read-out: IC50 (50% growth inhibition)
Numeric answer only, unit ng/mL assumed.

For this molecule ( `Clc1ccc2c(NCCN3CCCCC3)ccnc2c1` ), measured IC50 is 5

The molecule listed as `CC(C)(CN1CCCC1)Nc1ccnc2cc(Cl)ccc12` has a reported IC50 of 30

Lookup result for CCN(CC)[C@@H]1CCCC[C@H]1Nc1ccnc2cc(Cl)ccc12 (racemic) ; measured IC50: 11

// IC50 value for `Clc1ccc2c(NCCN3CCCC3)ccnc2c1` : 4

# molecule CCN(CC)C[C@H](C)Nc1ccnc2cc(Cl)ccc12 [Example 33e] ; its IC50 = 12

The molecule listed as CCN(CC)[C@@H]1CCC[C@H]1Nc1ccnc2cc(Cl)ccc12 (racemic) has a reported IC50 of 5

Memo: CCN1CCCC1CNc1ccnc2cc(Cl)ccc12 (stereo not shown) , reported IC50: 6

// IC50 value for CC1CC(C)(C)C(CNc2ccnc3cc(Cl)ccc23)C1N (stereo not shown) : 3

The molecule listed as CN1CCC(Nc2ccnc3cc(Cl)ccc23)C1 (racemic) [Example 33a] has a reported IC50 of 7

molecule C[C@@H](CN(C)C)Nc1ccnc2cc(Cl)ccc12 [Example 33c] , IC50 observed: 8

###

System: Plasmodium falciparum, chloroquine-sensitive strain NF54
Experiment: activity against P. falciparum in vitro, strain NF54
Assay type: cell-based
Details: Plasmodium falciparum; chloroquine-sensitive strain NF54; 48 h-72 h; read-out: IC50 (50% growth inhibition)
Procedure: Test method for the determination of the activity against P. falciparum in vitro The preparations of the present invention were tested on intraerythrocytary stages of P. falciparum from asynchronous cultures according to the method of Desjardin et al. (Desjardins, R. E. et al: Quantitative assessment of antimalarial activity in vitro by a semiautomated microdilution technique. Antimicrob. Agents Chemother. 16, 710-718, (1979)). […]
Kindly state IC50 for each of the entries shown.
A bare number is not enough; add the unit after it.

The molecule identified as Clc1ccc2c(NC3CCN(Cc4ccccc4)CC3)ccnc2c1 [Example 19] registered its IC50 at 7 ng/mL

// recorded IC50 for CC1CCN(CCNc2ccnc3cc(Cl)ccc23)CC1 [Example 24] : 7 ng/mL

The recorded IC50 for entry CCN(CC)C[C@@H](C)Nc1ccnc2cc(Cl)ccc12 [Example 33f] equals 12 ng/mL

Form field IC50, entry CCN(CC)CCNc1ccnc2cc(Cl)ccc12 [Example 6] : 5 ng/mL

// recorded IC50 for CC1CC(C)CN(CCNc2ccnc3cc(Cl)ccc23)C1 (centres unmarked) [Example 29] : 6 ng/mL

###

system: Plasmodium falciparum, chloroquine-sensitive strain NF54; test: activity against P. falciparum in vitro, strain NF54; type: cell-based; details: Plasmodium falciparum; chloroquine-sensitive strain NF54; 48 h-72 h; read-out: IC50 (50% growth inhibition)
Friendly reminder: IC50 below 7 ng/mL is true (1), at or above is false (0).

Prompt: Item C[C@H](CN(C)C)Nc1ccnc2cc(Cl)ccc12 [Example 33d] : IC50 beneath 7 ng/mL, strictly?
Response: false (0)

Prompt: Given CC(CN(C)C)Nc1ccnc2cc(Cl)ccc12 (racemic) , is recorded IC50 strictly lower than 7 ng/mL?
Response: true (1)

Prompt: Check if IC50 falls below 7 ng/mL for Clc1ccc2c(NCCN3CCC4CCCCC43)ccnc2c1 (stereo not shown) .
Response: true (1)

Prompt: Please check: IC50 for `CCN(CC)CCNc1ccnc2cc(C(F)(F)F)ccc12` , strictly under 7 ng/mL or not?
Response: false (0)

Prompt: Is IC50 of CCC1CCCCN1CCNc1ccnc2cc(Cl)ccc12 (racemic) strictly below 7 ng/mL?
Response: false (0)

###

test system: Plasmodium falciparum, chloroquine-sensitive strain NF54; assay: activity against P. falciparum in vitro, strain NF54; type: cell-based; details: Plasmodium falciparum; chloroquine-sensitive strain NF54; 48 h-72 h; read-out: IC50 (50% growth inhibition)
Field: label. Allowed values: yes (1) (IC50 < 6 ng/mL) or no (0) (IC50 >= 6 ng/mL).

Prompt: Decide: IC50 of `CC(C)(CN1CCCCC1)Nc1ccnc2cc(Cl)ccc12` strictly below 6 ng/mL?
Response: no (0)

Prompt: Hi there! Is IC50 for `CN(C)CCNc1ccnc2cc(C(F)(F)F)ccc12` below 6 ng/mL, do you know?
Response: no (0)

Prompt: A record lists `Clc1ccc2c(NCCCN3CCCC3)ccnc2c1` . Is its IC50 below 6 ng/mL?
Response: yes (1)

Prompt: Strictly below 6 ng/mL: is that where IC50 of `Clc1ccc2c(NCCCN3CCCCC3)ccnc2c1` sits?
Response: yes (1)

Prompt: Consider the compound `C[C@@H]1CCC[C@H](C)N1CCNc1ccnc2cc(Cl)ccc12` . Is its IC50 strictly less than 6 ng/mL?
Response: no (0)

Prompt: Consider the compound `CN(C)CCCNc1ccnc2cc(Cl)ccc12` . Is its IC50 strictly less than 6 ng/mL?
Response: yes (1)

Prompt: Regarding `CN(C)CCNc1ccnc2cc(Cl)ccc12` , kindly confirm whether its IC50 is beneath 6 ng/mL.
Response: yes (1)

Prompt: Is 6 ng/mL strictly greater than the compound's reported IC50? compound: `CC1(C)CCCN(CCNc2ccnc3cc(Cl)ccc23)C1`
Response: no (0)

Prompt: Lab note: IC50 threshold 6 ng/mL. Does this compound come in strictly under it? Clc1ccc2c(N[C@@H]3CCCC[C@H]3N3CCCC3)ccnc2c1 (racemic)
Response: no (0)

Prompt: Bench note: check whether `Clc1ccc2c(NCCN3CC4CCC(CC4)C3)ccnc2c1` shows IC50 below 6 ng/mL
Response: no (0)

Prompt: # TODO verify IC50 < 6 ng/mL strictly for this compound: C[C@@H](CNc1ccnc2cc(Cl)ccc12)N(C)C [Example 33g]
Response: yes (1)

Prompt: Problem: For the compound CN(C)C(C)(C)CNc1ccnc2cc(Cl)ccc12 [Example 33b] , is IC50 under 6 ng/mL?
Response: no (0)

Prompt: Is IC50 strictly under 6 ng/mL for the entry `CCN(CC)CCCNc1ccnc2cc(Cl)ccc12` ?
Response: yes (1)

Prompt: # strict comparison: is reported IC50 < 6 ng/mL? input = CCN(CC)CC(C)Nc1ccnc2cc(Cl)ccc12 (racemic)
Response: no (0)

Prompt: For `C=CCN(C)CCNc1ccnc2cc(Cl)ccc12` , is the recorded IC50 below the cut-off of 6 ng/mL?
Response: no (0)

Prompt: Is it true that IC50 reported for CC(CN1CCCC1)Nc1ccnc2cc(Cl)ccc12 (racemic) is less than 6 ng/mL?
Response: no (0)
